Values compiled from ChEMBL document CHEMBL6092213.

experimentalDetails: Solubility of compound in PBS at pH 7.4 incubated for 24 hrs by UPLC analysis
Format: physicochemical
assayConditions: PBS, pH 7.4
metric: solubility at 24 h (µM)
I only need the number, in µM, no unit after it.

// query Bench note: what solubility at 24 h did `Nc1nc(N)c(OCCCOc2ccccc2CCC(=O)O)c(-c2ccccc2)n1` show?
// result 52

* * *

experimentalDetails: Apparent permeability in MDCK-II cells incubated for 1 hr by LC-MS/MS method
Assay type: ADME, cell-based, Canis lupus familiaris
assayConditions: dog
Reported Papp values are given for each entry in this list.
Give the value in ×10⁻⁶ cm/s but do not write ×10⁻⁶ cm/s after it.

Solved cases (4 shown):
| smilesStr | valueObserved |
| --- | --- |
| Nc1nc(N)c(OCCCOc2ccccc2CCC(=O)O)c(-c2ccccc2)n1 | 5.4 |
| Nc1nc(N)c(OCCCOc2ccccc2CCC(=O)O)c(CCCCO)n1 | 0.8 |
| Nc1nc(N)c(OCCCOc2ccccc2CCC(=O)O)c(C2CCCCC2)n1 | 3.2 |
| CCc1nc(N)nc(N)c1OCCCOc1ccccc1CCC(=O)O | 3 |

Turning to the following compound.
// query Fill in: Papp of `COc1ccc(-c2nc(N)nc(N)c2OCCCOc2ccccc2CCC(=O)O)cc1` is ___
// result 4.1

* * *

experimentalDetails: Lipophilicity, logP of compound
Assay type: physicochemical
assayConditions: octanol/water
metric: logP

// query Find the recorded logP belonging to `Nc1nc(N)c(OCCCOc2ccccc2CCC(=O)O)c(C2CCCCC2)n1` and report it.
// result 3.6

* * *

experimentalDetails: Clearance in mouse
Format: ADME, organism-based
assayConditions: in vivo
metric: clearance (mL/min/kg)
API: value field is a number in mL/min/kg; no unit string.

// query Need clearance, item `CCc1nc(N)nc(N)c1OCCCOc1ccccc1CCC(=O)O`
// result 43.6

* * *

experimentalDetails: Observed clearance in BALB/c mouse at 1 mg/kg, iv measured upto 24 hrs by UPLC/MS-MS analysis
Format: ADME, organism-based
assayConditions: in vivo
metric: clearance (mL/min/kg)
# unit: mL/min/kg | format: bare number

// query Which clearance value is on record for `Nc1nc(N)c(OCCCOc2ccccc2CCC(=O)O)c(C2CCCCC2)n1` ?
// result 23

* * *

experimentalDetails: Metabolic stability in human liver microsomes assessed as intrinsic clearance at 0.5 uM measured upto 30 mins in presence of NADPH by UPLC-MS/MS analysis
Format: ADME, Microsome
assayConditions: 0.5 h
metric: intrinsic clearance (mL/min/g)
// return numeric value only (unit: mL/min/g, not printed)

| smilesStr | intrinsic clearance [mL/min/g] |
| --- | --- |
| Nc1nc(N)c(OCCCOc2ccccc2CCC(=O)O)c(-c2ccccc2)n1 | 0.43 |

Okay, now this compound:
// query State the recorded intrinsic clearance for this entry: `Nc1nc(N)c(OCCCOc2ccccc2CCC(=O)O)c(C2CCCCC2)n1`
// result 0.54

* * *

Below are IC50 values measured for UniProt:P00374.
Sequence (P00374 whole entry): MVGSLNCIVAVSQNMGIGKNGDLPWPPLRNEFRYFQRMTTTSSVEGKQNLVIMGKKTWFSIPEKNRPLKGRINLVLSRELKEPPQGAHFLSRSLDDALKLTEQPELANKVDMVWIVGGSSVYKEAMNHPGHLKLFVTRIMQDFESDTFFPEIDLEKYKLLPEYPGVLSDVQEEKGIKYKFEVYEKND

Look over these answered cases.
| smilesStr | IC50 |
| --- | --- |
| CCCc1nc(N)nc(N)c1OCCCOc1ccccc1CCC(=O)O | 0.0072 µM |
| CCCCCc1nc(N)nc(N)c1OCCCOc1ccccc1CCC(=O)O | 0.43 µM |
| CCc1nc(N)nc(N)c1OCCCOc1ccccc1CCC(=O)O | 0.12 µM |
| CCCOc1nc(N)nc(N)c1OCCCOc1ccccc1CCC(=O)O | > 5 µM |
| Nc1nc(N)c(OCCCOc2ccccc2CCC(=O)O)c(CCCCO)n1 | 0.46 µM |

// query Recorded IC50 for `Nc1nc(N)c(OCCCOc2ccccc2CCC(=O)O)c(C2CCCCC2)n1` , please?
// result 2.1 µM

// query Looking for the measured IC50 of `NCCCc1nc(N)nc(N)c1OCCCOc1ccccc1CCC(=O)O` , can you help?
// result > 5 µM

// query Look at this molecule and give its reported IC50. `COc1cccc(-c2nc(N)nc(N)c2OCCCOc2ccccc2CCC(=O)O)c1`
// result > 5 µM

// query IC50 for `COc1nc(N)nc(N)c1OCCCOc1ccccc1CCC(=O)O` ?
// result > 5 µM

// query Item under review: `Nc1nc(N)c(OCCCOc2ccccc2CCC(=O)O)c(C2CCNCC2)n1` . Reported IC50?
// result > 5 µM

// query // lookup IC50 for `Nc1nc(N)c(OCCCOc2ccccc2CCC(=O)O)c(-c2ccncc2)n1`
// result > 5 µM

// query Value lookup for IC50; key = `CCCCOc1nc(N)nc(N)c1OCCCOc1ccccc1CCC(=O)O`
// result > 5 µM

// query Quick one: IC50 for `COc1ccccc1-c1nc(N)nc(N)c1OCCCOc1ccccc1CCC(=O)O` ?
// result > 5 µM

// query Reported IC50 for `Nc1nc(N)c(OCCCOc2ccccc2CCC(=O)O)c(-c2ccccc2)n1` : what is it?
// result > 5 µM

* * *

Parameter: MIC. Scope: all listed entries.
Test system: Mycobacteroides abscessus
experimentalDetails: Antibacterial activity against Mycobacterium abscessus ATCC 19977 incubated for 2 days by resazurin microtiter assay
Assay type: functional
assayConditions: ATCC 19977, 48 h, time 2 day

Look over these answered cases.
| smilesStr | valueObserved |
| --- | --- |
| Nc1nc(N)c(OCCCOc2ccccc2CCC(=O)O)c(-c2ccncc2)n1 | 0.6 µg/mL |
| COc1cccc(-c2nc(N)nc(N)c2OCCCOc2ccccc2CCC(=O)O)c1 | 5.6 µg/mL |
| Nc1nc(N)c(OCCCOc2ccccc2CCC(=O)O)c(C2CCNCC2)n1 | 6.2 µg/mL |
| Nc1nc(N)c(OCCCOc2ccccc2CCC(=O)O)c(C2CCCCC2)n1 | 0.1 µg/mL |
| CCc1nc(N)nc(N)c1OCCCOc1ccccc1CCC(=O)O | 10.1 µg/mL |

// query Query (compound): `Nc1nc(N)c(OCCCOc2ccccc2CCC(=O)O)c(-c2ccccc2)n1` ; field requested: MIC
// result 0.3 µg/mL

// query Look up MIC: `Nc1nc(N)c(OCCCOc2ccccc2CCC(=O)O)c(-c2ccccc2C(F)(F)F)n1`
// result 3.6 µg/mL

// query Give its MIC value. Item: `Nc1nc(N)c(OCCCOc2ccccc2CCC(=O)O)c(CCCCO)n1`
// result 0.1 µg/mL

* * *

experimentalDetails: Solubility of compound in PBS at pH 7.4 incubated for 24 hrs by UPLC analysis
Assay type: physicochemical
assayConditions: buffer, pH 7.4, 24 h
Overview of reported solubility across a group of molecules:
Give the value, in units of µM, as a plain number.

Consider the reported solubility for these molecules:
| smilesStr | solubility (µM) |
| --- | --- |
| CCc1nc(N)nc(N)c1OCCCOc1ccccc1CCC(=O)O | 233 |
| Nc1nc(N)c(OCCCOc2ccccc2CCC(=O)O)c(CCCCO)n1 | 227 |
| COc1ccc(-c2nc(N)nc(N)c2OCCCOc2ccccc2CCC(=O)O)cc1 | 67 |

// query Query (molecule): `Nc1nc(N)c(OCCCOc2ccccc2CCC(=O)O)c(C2CCCCC2)n1` ; field requested: solubility
// result 43

* * *

experimentalDetails: Volume of distribution in mouse
Type: ADME, organism-based
assayConditions: in vivo
metric: Vd (L/kg)
Provide only the numeric value, understood in L/kg.

// query Look up Vd for this molecule: `CCc1nc(N)nc(N)c1OCCCOc1ccccc1CCC(=O)O`
// result 2.5

* * *

experimentalDetails: Inhibition of Mycobacterium avium DHFR using 7, 8 dihydrofolate as substrate incubated for 1 hr by plate reader assay
Below, each entry is listed alongside its reported IC50.

Look over these answered cases.
| smilesStr | IC50 |
| --- | --- |
| Nc1nc(N)c(OCCCOc2ccccc2CCC(=O)O)c(-c2ccccc2C(F)(F)F)n1 | 28 nM |
| Nc1ncc(OCCCOc2ccccc2CCC(=O)O)c(N)n1 | 220 nM |
| CCCOc1nc(N)nc(N)c1OCCCOc1ccccc1CCC(=O)O | > 5000 nM |

// query Returns the measured IC50 for the input molecule. Input: `CCCc1nc(N)nc(N)c1OCCCOc1ccccc1CCC(=O)O`
// result 3.8 nM

// query What value of IC50 has been reported for the following molecule? `COc1ccccc1-c1nc(N)nc(N)c1OCCCOc1ccccc1CCC(=O)O`
// result 210 nM

// query Look up IC50: `Nc1nc(N)c(OCCCOc2ccccc2CCC(=O)O)c(CCCCO)n1`
// result 5 nM

// query Name the recorded IC50 for `Nc1nc(N)c(OCCCOc2ccccc2CCC(=O)O)c(-c2ccncc2)n1` .
// result 17 nM

* * *

experimentalDetails: Metabolic stability in human liver microsomes assessed as intrinsic clearance at 0.5 uM measured upto 30 mins in presence of NADPH by UPLC-MS/MS analysis
Assay type: ADME, Microsome
assayConditions: 0.5 h
metric: intrinsic clearance

| smilesStr | valueObserved |
| --- | --- |
| CCc1nc(N)nc(N)c1OCCCOc1ccccc1CCC(=O)O | < 0.4 mL/min/g |
| Nc1nc(N)c(OCCCOc2ccccc2CCC(=O)O)c(CCCCO)n1 | < 0.4 mL/min/g |

Now take the following compound into account.
// query Which intrinsic clearance is listed for `COc1ccc(-c2nc(N)nc(N)c2OCCCOc2ccccc2CCC(=O)O)cc1` ?
// result < 0.4 mL/min/g
